Numbers sourced from ChEMBL document CHEMBL6078666.

- Tested on: Staphylococcus epidermidis
- experimental_protocol: Antibacterial activity against methicillin-resistant Staphylococcus epidermidis clinical isolate 202409454 assessed as bacterial growth inhibition measured after 20 hrs by broth dilution method
- Format: functional
parameter: MIC (µg/mL)

>>> df
                       smiles_representation  readout_value
 0  C=C[C@]1(C)C[C@@H](OC(=O)CSc2cc(=O)oc3ccc(F)cc23)[C@]2(C)[C@H](C)CC[C@]3(CCC(=O)[C@H]32)[C@@H](C)[C@@H]1O          0.125
 1  C=C[C@]1(C)C[C@@H](OC(=O)CSCCOc2cc(=O)oc3ccccc23)[C@]2(C)[C@H](C)CC[C@]3(CCC(=O)[C@H]32)[C@@H](C)[C@@H]1O          0.063
 2  C=C[C@]1(C)C[C@@H](OC(=O)CSc2cc(=O)oc3ccc([N+](=O)[O-])cc23)[C@]2(C)[C@H](C)CC[C@]3(CCC(=O)[C@H]32)[C@@H](C)[C@@H]1O          0.125
 3  C=C[C@]1(C)C[C@@H](OC(=O)CSc2cc(=O)oc3ccccc23)[C@]2(C)[C@H](C)CC[C@]3(CCC(=O)[C@H]32)[C@@H](C)[C@@H]1O           0.25
 4  C=C[C@]1(C)C[C@@H](OC(=O)CSc2cc(=O)oc3cc(OC)ccc23)[C@]2(C)[C@H](C)CC[C@]3(CCC(=O)[C@H]32)[C@@H](C)[C@@H]1O          0.063
 5  C=C[C@]1(C)C[C@@H](OC(=O)CSc2cc(=O)oc3cc(F)ccc23)[C@]2(C)[C@H](C)CC[C@]3(CCC(=O)[C@H]32)[C@@H](C)[C@@H]1O          0.063
 6  C=C[C@]1(C)C[C@@H](OC(=O)CO)[C@]2(C)[C@H](C)CC[C@]3(CCC(=O)[C@H]32)[C@@H](C)[C@@H]1O           0.25
 7  C=C[C@]1(C)C[C@@H](OC(=O)CSCCN(CC)CC)[C@]2(C)[C@H](C)CC[C@]3(CCC(=O)[C@H]32)[C@@H](C)[C@@H]1O              2
 8  C=C[C@]1(C)C[C@@H](OC(=O)CSCCOc2cc(=O)oc3cc(OC)ccc23)[C@]2(C)[C@H](C)CC[C@]3(CCC(=O)[C@H]32)[C@@H](C)[C@@H]1O           0.25
 9  C=C[C@]1(C)C[C@@H](OC(=O)CSc2cc(=O)oc3cc(C)ccc23)[C@]2(C)[C@H](C)CC[C@]3(CCC(=O)[C@H]32)[C@@H](C)[C@@H]1O          0.063
10  C=C[C@]1(C)C[C@@H](OC(=O)CSc2cc(=O)oc3cc(Cl)ccc23)[C@]2(C)[C@H](C)CC[C@]3(CCC(=O)[C@H]32)[C@@H](C)[C@@H]1O          0.125
11  C=C[C@]1(C)C[C@@H](OC(=O)CSc2cc(=O)oc3cc(Br)ccc23)[C@]2(C)[C@H](C)CC[C@]3(CCC(=O)[C@H]32)[C@@H](C)[C@@H]1O          0.125
